All values here come from patent US20080139558A1.

- SUBJECT_OF_TEST: human iNOS (Homo sapiens)
- Sequence (P35228 whole entry): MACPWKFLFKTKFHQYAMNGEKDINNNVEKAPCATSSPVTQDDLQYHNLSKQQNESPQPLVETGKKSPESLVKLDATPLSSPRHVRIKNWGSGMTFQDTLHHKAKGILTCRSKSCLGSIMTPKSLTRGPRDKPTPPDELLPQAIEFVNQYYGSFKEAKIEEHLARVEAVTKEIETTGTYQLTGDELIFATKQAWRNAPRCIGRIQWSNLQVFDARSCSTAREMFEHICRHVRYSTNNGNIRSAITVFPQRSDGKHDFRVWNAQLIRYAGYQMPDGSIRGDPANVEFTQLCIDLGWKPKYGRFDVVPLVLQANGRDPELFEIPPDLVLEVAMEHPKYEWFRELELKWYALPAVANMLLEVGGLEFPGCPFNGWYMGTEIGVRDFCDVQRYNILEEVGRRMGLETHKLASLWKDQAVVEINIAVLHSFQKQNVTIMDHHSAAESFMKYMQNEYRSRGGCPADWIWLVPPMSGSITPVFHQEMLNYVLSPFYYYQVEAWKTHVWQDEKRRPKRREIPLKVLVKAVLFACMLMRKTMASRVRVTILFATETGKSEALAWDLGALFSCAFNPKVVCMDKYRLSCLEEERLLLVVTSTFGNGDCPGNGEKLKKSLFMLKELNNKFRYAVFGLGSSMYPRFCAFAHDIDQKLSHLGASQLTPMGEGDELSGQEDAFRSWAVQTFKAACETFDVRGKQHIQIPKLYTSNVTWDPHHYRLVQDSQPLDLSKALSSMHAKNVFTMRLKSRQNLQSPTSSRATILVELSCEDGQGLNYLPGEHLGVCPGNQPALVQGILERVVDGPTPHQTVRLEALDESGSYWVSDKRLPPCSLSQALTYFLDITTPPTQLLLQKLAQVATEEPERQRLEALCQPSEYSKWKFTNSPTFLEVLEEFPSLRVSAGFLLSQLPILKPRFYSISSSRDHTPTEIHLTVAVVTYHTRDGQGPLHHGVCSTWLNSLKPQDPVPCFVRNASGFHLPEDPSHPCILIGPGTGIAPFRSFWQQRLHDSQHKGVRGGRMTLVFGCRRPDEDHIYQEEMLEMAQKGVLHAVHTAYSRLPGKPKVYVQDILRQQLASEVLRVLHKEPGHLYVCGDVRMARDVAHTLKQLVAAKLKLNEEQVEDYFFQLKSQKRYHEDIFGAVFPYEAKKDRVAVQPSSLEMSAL
- EXPERIMENTAL_PROTOCOL: DAN assay of nitric oxide production (hiNOS)
- CONDITION_SET: enzyme expressed in HEK293 cells transiently transfected with human iNOS
pEC50: −log10 of the molar value.
Catalogue of pEC50 readings, one per entry.

The recorded pEC50 with human iNOS (Homo sapiens) for `Cc1ncsc1C(=O)N(Cc1cc(=O)[nH]c2c(F)c(F)ccc12)C1CC1` was < 5.30

The recorded pEC50 with human iNOS (Homo sapiens) for `Cc1ncsc1C(=O)N(Cc1cc(=O)[nH]c2c(Cl)cccc12)c1cccc(Cl)c1` was < 5.30

The recorded pEC50 with human iNOS (Homo sapiens) for `O=C(c1ccc(F)cc1)N(Cc1cc(=O)[nH]c2c(F)cccc12)c1cccc(Cl)c1` was < 5.30

The recorded pEC50 with human iNOS (Homo sapiens) for `Cc1ccc2[nH]c(=O)cc(CN(C(=O)c3ccco3)c3ccccc3)c2c1` was ≥ 5.30

The recorded pEC50 with human iNOS (Homo sapiens) for `O=c1cc(Cn2c(-c3ccccc3Cl)nc3ccccc32)c2ccc(F)c(F)c2[nH]1` was ≥ 5.30

The recorded pEC50 with human iNOS (Homo sapiens) for `Cc1ccc(C(=O)N(Cc2cc(=O)[nH]c3c(F)cccc23)c2cccc(Cl)c2)cc1` was < 5.30
